Answer each item with its documented percent inhibition of viability.
Tested on: YT (IL-2 2.5 ng/mL)
Experiment description: percent inhibition of viability; higher = more inhibition;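 further: normalised to DMSO-only wells as negative and benzethonium chloride as positive control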
Experimental setup: 72 h; 250 nM
Report only the number, with the unit % understood.

Sure, the documented percent inhibition of viability for CN1CCN(C2CCN(C(=O)Nc3cc(Oc4ccc(NC(=O)C5(C(=O)Nc6ccc(F)cc6)CC5)c(F)c4)ccn3)CC2)CC1 [Golvatinib] (max concentration tested 2500 nM) is 2.58

For reference, reported percent inhibition of viability for Nc1nc(NC2CC2)cc(-c2cccc(Cl)c2Cl)n1 [TH588] (max concentration tested 25000 nM) stands at 4.62

Quick note, percent inhibition of viability for O=C(c1cccc(Cl)c1F)N1CCN(Cc2cccc(Nc3nccs3)n2)CC1 [MK-8745] (max concentration tested 2500 nM) landed at 7.04

# percent inhibition of viability (compound: COc1cc2nccc(Oc3ccc(NC(=O)NC4CC4)c(Cl)c3)c2cc1C(N)=O [Lenvatinib] (max concentration tested 2500 nM) ) is 0.74

Reported percent inhibition of viability of NC(=O)Nc1sc(-c2ccc(F)cc2)cc1C(N)=O [TPCA-1] (max concentration tested 25000 nM) : 13.1

Reported percent inhibition of viability for COc1cc(C(=O)NC2CCN(C)CC2)c(F)cc1Nc1ncc2c(n1)N(C1CCCC1)CC(F)(F)C(=O)N2C [TAK-960] (max concentration tested 2500 nM) was 0.43

// recorded percent inhibition of viability for Cc1cc(Nc2ncc(Cl)c(Nc3ccccc3S(=O)(=O)C(C)C)n2)c(OC(C)C)cc1C1CCNCC1 [Ceritinib] (max concentration tested 2500 nM) : -2.37
